test system: Human glucocorticoid receptors (Homo sapiens)
Construct: made in house; host or cells: Sf9 insect cells, recombinant baculovirus (BAC-TO-BAC)
Sequence (P04150 1-777): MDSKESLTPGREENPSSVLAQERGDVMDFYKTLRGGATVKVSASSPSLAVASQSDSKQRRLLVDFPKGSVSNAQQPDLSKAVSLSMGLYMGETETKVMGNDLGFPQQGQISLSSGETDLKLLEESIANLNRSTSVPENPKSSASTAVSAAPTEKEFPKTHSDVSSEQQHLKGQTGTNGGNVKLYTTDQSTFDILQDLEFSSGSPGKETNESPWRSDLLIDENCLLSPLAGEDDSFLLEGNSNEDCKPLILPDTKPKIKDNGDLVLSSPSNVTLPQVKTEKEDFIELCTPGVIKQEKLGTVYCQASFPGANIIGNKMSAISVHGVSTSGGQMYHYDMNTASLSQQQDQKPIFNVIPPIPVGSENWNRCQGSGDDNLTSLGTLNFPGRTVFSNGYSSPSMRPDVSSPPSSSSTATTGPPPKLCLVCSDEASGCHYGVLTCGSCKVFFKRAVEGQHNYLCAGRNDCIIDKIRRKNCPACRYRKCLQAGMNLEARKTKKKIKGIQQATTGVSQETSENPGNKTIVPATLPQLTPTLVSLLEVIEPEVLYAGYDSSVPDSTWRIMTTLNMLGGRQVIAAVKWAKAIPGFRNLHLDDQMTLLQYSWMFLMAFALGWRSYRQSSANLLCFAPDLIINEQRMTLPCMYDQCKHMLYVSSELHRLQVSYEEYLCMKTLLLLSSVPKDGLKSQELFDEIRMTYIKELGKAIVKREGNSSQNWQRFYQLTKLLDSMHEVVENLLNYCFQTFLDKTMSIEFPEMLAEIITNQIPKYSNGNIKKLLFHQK
assay summary: Radioligand filter binding assay, displacement of 3[H]-dexamethasone from hGR
details: read-out: GR Binding (% Inhibition at 1.7 μM)
Each entry below lists one item and its recorded inhibition at 1.7 µM value.
Give your result in % as a bare value.

Recorded inhibition at 1.7 µM, per entry:
Cc1c(NS(C)(=O)=O)cccc1N(Cc1ccc(Oc2ccc(Cl)c(OCC(=O)O)c2)cc1)Cc1ccc(Cl)cc1Br [Example 312] = 97.3
CCOC(=O)CCNC(=O)c1ccc(Oc2ccc(CN(Cc3ccc(F)cc3F)c3cccc(NS(C)(=O)=O)c3C)cc2)cc1 [Example 68] = 90.4
COC(=O)c1cccc(Oc2ccc(CN(Cc3ccc(F)cc3F)c3cccc(NS(C)(=O)=O)c3C)cc2)c1 [Example 67] = 89
Cc1c(NS(C)(=O)=O)cccc1N(Cc1ccc(OCc2ccc3c(c2)OCO3)cc1)Cc1ccc(F)cc1F [Example 156] = 94.9

Q: Any idea what its inhibition at 1.7 µM is? The molecule is Cc1c(NS(C)(=O)=O)cccc1N(Cc1ccccc1)Cc1ccc(Oc2ccc(OCCCCC(=O)NC3CCOC3=O)cc2)cc1 (centres unmarked) [Example 268]
Result: 90.8

Q: Now consider Cc1c(NS(C)(=O)=O)cccc1N(Cc1ccccc1)Cc1ccc(C(=O)c2cccc(OCC3CCOC3)c2)cc1 (centres unmarked) [Example 245] and answer again.
Result: 96.3

Q: Now consider Cc1c(NS(C)(=O)=O)cccc1N(Cc1ccccc1F)Cc1ccc(F)cc1F [Example 23] and answer again.
Result: 92

Q: Now consider Cc1c(NS(C)(=O)=O)cccc1N(Cc1ccccc1)Cc1ccc(Oc2ccc(OCCCCC(=O)N(C)CC(=O)O)cc2)cc1 [Example 264] and answer again.
Result: 89.5

Cited source for all entries: patent US6583180B2
